# recordedConditions: 298.15 K; 100 kPa; Liquid; Vibrating tube method
measurementType: mass density (kg/m3)

CCO :: 785.16
CO :: 786.53
CCCCO :: 805.95
CCCO :: 799.66
CCOC(=O)C(C)O (racemic) [DL-ethyl lactate] :: 1028.45
COC(=O)C(C)O (stereo unspecified) [methyl 2-hydroxypropanoate] :: 1087.35

###

# recordedConditions: 298.15 K; 100 kPa; Liquid; Frequency=3 MHz; Single path-length method
measurementType: speed of sound (m/s)

CCCCO :: 1240.4
CCOC(=O)C(C)O (racemic) [DL-ethyl lactate] :: 1279.3
COC(=O)C(C)O (stereo unspecified) [methyl 2-hydroxypropanoate] :: 1339.3
CCCO :: 1206
CO :: 1104
CCO :: 1143.2

###

# procedureDetails: excess molar enthalpy (molar enthalpy of mixing); xn = mol fraction of the nth substance listed
# recordedConditions: 298.15 K; 100 kPa; Liquid; Power-compensation calorimetry; x1 = 0.104
measurementType: excess molar enthalpy (kcal/mol)

a. CCOC(=O)C(C)O (stereo not drawn) [DL-ethyl lactate] + CO
b. COC(=O)C(C)O (centres undefined) [methyl 2-hydroxypropanoate] + CCO
c. COC(=O)C(C)O (centres undefined) [methyl 2-hydroxypropanoate] + CCCO
d. COC(=O)C(C)O (centres undefined) [methyl 2-hydroxypropanoate] + CO
Query string: Please produce an ascending ranking of these compounds based on excess molar enthalpy. Write out the labels following the order that was asked for.
Result string: a, d, b, c
